Source: the supplement of paper PMC11061612

- System: TK10 (Kidney Carcinoma)
- assay procedure: combination Emax (second highest fraction inhibited in the dose matrix, 72 h); higher = more inhibition; extreme values may be limits of the assay
parameter: combination Emax
Answer as a number with no unit attached.

- COc1cccc(OCCCN)c1-c1cc(Nc2cnc(C#N)cn2)n[nH]1 [Prexasertib] + CN(C)CCCOc1ccc(-c2ccc3ncc4c(c3c2)n(C2CCOCC2)c(=O)n4C)cn1 [AZD0156] (first compound max 1 µM, 7x7, partner max 1 µM): 0.727

Item Cn1cnc2c(F)c(Nc3ccc(Br)cc3Cl)c(C(=O)NOCCO)cc21 [Selumetinib] + CC(C)n1c(=O)n(C)c2cnc3cc(F)c(-c4ccc(OCCCN5CCCCC5)nc4)cc3c21 [AZD1390] (first compound max 10 µM, 7x7, partner max 0.3 µM) ; assay system TK10 (Kidney Carcinoma); combination Emax reported as 0.325

// returns combination Emax for CN(CCO)CC[C@H](CSc1ccccc1)Nc1ccc(S(=O)(=O)NC(=O)c2ccc(N3CCC([C@@H](O)c4ccccc4-c4ccc(Cl)cc4)CC3)cc2)cc1S(=O)(=O)C(F)(F)F [AZD4320] + CC(=O)O[C@H]1C(=O)[C@@]2(C)[C@H]([C@H](OC(=O)c3ccccc3)[C@]3(O)C[C@H](OC(=O)[C@H](O)[C@@H](NC(=O)c4ccccc4)c4ccccc4)C(C)=C1C3(C)C)[C@]1(OC(C)=O)CO[C@@H]1C[C@@H]2O [Paclitaxel] (first compound max 1 µM, 7x7, partner max 3 µM) with TK10 (Kidney Carcinoma); value = 0.821

----------
- System: KARPAS-299 (T-Cell Non-Hodgkin's Lymphoma);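 further: after 72 h of two-drug dosing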
- assay procedure: Bliss excess, mean over the matrix (fraction); higher = more synergy
parameter: Bliss excess

* Cc1nc(-c2cn3c(n2)-c2ccc(-c4cnn(C(C)(C)C(N)=O)c4)cc2OCC3)n(C(C)C)n1 [Taselisib] + O=C(Nc1ccc2[nH]nc(-c3ccncc3)c2c1)[C@@H]1CCN(CC(=O)N2CCN(c3ccc(-c4ncccn4)cc3)CC2)C1 [SCH772984] (first compound max 10 µM, 7x7, partner max 5 µM) | 0.147
* Cc1cc2ncnn2cc1Nc1ncc2c(n1)n(C1CCOCC1)c(=O)n2C [AZD7648] + COc1cc([C@@H]2c3cc4c(cc3[C@@H](O[C@@H]3O[C@@H]5CO[C@@H](C)O[C@H]5[C@H](O)[C@H]3O)[C@H]3COC(=O)[C@H]23)OCO4)cc(OC)c1O [Etoposide] (first compound max 10 µM, 7x7, partner max 10 µM) | 0.0522
* CC1(C)CCC(CN2CCN(c3ccc(C(=O)NS(=O)(=O)c4ccc(NCC5CCOCC5)c([N+](=O)[O-])c4)c(Oc4cnc5[nH]ccc5c4)c3)CC2)=C(c2ccc(Cl)cc2)C1 [Venetoclax] + C[C@@H]1COCCN1C2=NC(=NC(=C2)C3(CC3)[S@](=N)(=O)C)C4=C5C=CNC5=NC=C4 [AZD6738] (first compound max 1 µM, 7x7, partner max 10 µM) | -0.0328
* NC1(C(=O)N[C@@H](CCO)c2ccc(Cl)cc2)CCN(c2ncnc3[nH]ccc23)CC1 [Capivasertib] + CC(=O)c1c(C)c2cnc(Nc3ccc(N4CCNCC4)cn3)nc2n(C2CCCC2)c1=O [Palbociclib] (first compound max 10 µM, 7x7, partner max 10 µM) | 0.0205
* C=CCn1c(=O)c2cnc(Nc3ccc(N4CCN(C)CC4)cc3)nc2n1-c1cccc(C(C)(C)O)n1 [AZD1775] + C1CN(CCC1(C(=O)N[C@@H](CCO)C2=CC=C(C=C2)Cl)N)C3=NC=NC4=C3C=CN4 [Capivasertib] (first compound max 3 µM, partner max 3 µM) | -0.0444

Please fill in: Bliss excess reported for COc1nnc2ccc(N3CCC(c4ccc(OCCN5CCN(C)C(=O)[C@H]5C)cc4)CC3)nn12 [AZD5153] + C=CCn1c(=O)c2cnc(Nc3ccc(N4CCN(C)CC4)cc3)nc2n1-c1cccc(C(C)(C)O)n1 [AZD1775] (first compound max 1 µM, partner max 1 µM) = -0.0336

The recorded Bliss excess for entry Cc1c2c(nn1C)CSCc1cc(n(C)n1)CSc1cc(c3ccccc3c1)OCCCc1c(C(=O)O)n(C)c3c-2c(Cl)ccc13 [AZD5991] + C[C@@H](Nc1cc(F)cc(F)c1)c1cc(C(=O)N(C)C)cc2c(=O)cc(N3CCOCC3)oc12 [AZD8186] (first compound max 1 µM, 7x7, partner max 3 µM) equals 0.0185
